test-target: DNA-PK (Homo sapiens)
Construct: purchased Invitrogen PR9107A
assay-method-text: DNA-PK Assay for Biochemical Enzymatic Inhibition (ADP Glo Kinase assay)
experimental-parameters: Table 1
Description: A biochemical assay was performed to identify IC50 values against DNA-PK activity in a two-step reaction with a kinase reaction followed by ADP Glo™ Kinase assay Kit (Promega V9102). Three-fold serial dilutions of compounds in DMSO were prepared in kinase assay buffer (50 mM HEPES pH 7.5, 20 mM MgCl2, 100 mM KCl, 50 μM DTT, 10 μg/ml calf thymus DNA, 0.01% Tween 20). […] DMSO controls were prepared to produce a maximum and minimum luminescence signal for normalization. […]
endpoint-label: IC50

The reported IC50 of the molecule c1cnc2cc(N3CCOCC3)nc(O[C@H]3CC[C@@H](Nc4ncnc5ccsc45)CC3)c2c1 [Compound 83] was < 0.5 nM

Form field IC50, entry COc1ccc(N[C@H]2CC[C@@H](Oc3nc(N4CCOCC4)cc4ncccc34)CC2)nn1 [Compound 38] : 0.5 to 1 nM

Lab note: Clc1cnc(N[C@H]2CC[C@@H](Oc3nc(N4CCOCC4)cc4ncccc34)CC2)nc1 [Compound 41] gave IC50 of 0.5 to 1 nM

Per the record, c1cnc2cc(N3CCOCC3)nc(O[C@H]3CC[C@@H](Nc4ncnc5ccoc45)CC3)c2c1 [Compound 80a] has IC50 of < 0.5 nM

Quick note, IC50 for c1cnc2cc(N3CCOCC3)nc(O[C@H]3CC[C@@H](Nc4cnccn4)CC3)c2c1 [Compound 23] landed at < 0.5 nM

The recorded IC50 for O=C(N[C@H]1CC[C@@H](Oc2nc(N3CCOCC3)cc3ncc(Br)cc23)CC1)c1ncccn1 [Compound 176] is 0.5 to 1 nM

# molecule Cc1cnn([C@H]2CC[C@@H](Oc3nc(N4CCOCC4)cc4ncccc34)CC2)c1C(F)(F)F [Compound 17f] ; its IC50 = 1 to 10 nM

Value of measured IC50 for the entry O=C(N[C@H]1CC[C@@H](Oc2nc(N3CCOCC3)cc3ncccc23)CC1)c1ccco1 [Compound 132] : < 0.5 nM

The reported value for COc1cnc(N[C@H]2CC[C@@H](Oc3nc(N4CCOCC4)cc4ncccc34)CC2)nc1 [Compound 20c] in terms of IC50 is 1 to 10 nM

For COc1cnc(N[C@H]2CC[C@@H](Oc3nc(N4CCOCC4)cc4ncc(I)cc34)CC2)nc1 [Compound 201] the molecule record lists IC50 as 1 to 10 nM

response.value for CCCS(=O)(=O)Nc1cnc2cc(N3CCOCC3)nc(O[C@H]3CC[C@@H](Nc4ncccn4)CC3)c2c1 [Compound 189] (field: IC50) = 1 to 10 nM

// field: IC50; key: O=C(N[C@H]1CC[C@@H](Oc2nc(N3CCOCC3)cc3ncccc23)CC1)c1ccccc1 [Compound 110] ; value = < 0.5 nM

Per the record, O=C(N[C@H]1CC[C@@H](Oc2nc(N3CCOCC3)cc3ncccc23)CC1)N1CCOCC1 [Compound 14] has IC50 of 1 to 10 nM

Please fill in: IC50 reported for Cc1nn([C@H]2CC[C@@H](Oc3nc(N4CCOCC4)cc4ncccc34)CC2)cc1C(F)(F)F [Compound 17g] = 1 to 10 nM

// recorded IC50 for COc1ccc(C(=O)N[C@H]2CC[C@@H](Oc3nc(N4CCOCC4)cc4ncccc34)CC2)cc1 [Compound 112] : < 0.5 nM

Entry CN(C)c1ccnc(N[C@H]2CC[C@@H](Oc3nc(N4CCOCC4)cc4ncccc34)CC2)n1 [Compound 50] — recorded IC50 = 0.5 to 1 nM

Quick note, IC50 for Nc1cnc2cc(N3CCOCC3)nc(O[C@H]3CC[C@@H](n4ccnc4)CC3)c2c1 [Compound 160] landed at 0.5 to 1 nM

Reported IC50 for O=C(N[C@H]1CC[C@@H](Oc2nc(N3CCOCC3)cc3ncccc23)CC1)C1CCCO1 (stereo partly shown) [Compound 134] was 1 to 10 nM

So, O=C(N[C@H]1CC[C@@H](Oc2nc(N3CCOCC3)cc3ncccc23)CC1)c1cncs1 [Compound 137] ? Its IC50 was < 0.5 nM

Quick note, IC50 for FC(F)(F)c1cncn1[C@H]1CC[C@@H](Oc2nc(N3CCOCC3)cc3ncccc23)CC1 [Compound 17j] landed at < 0.5 nM

Documented IC50 of O=C(N[C@H]1CC[C@@H](Oc2nc(N3CCOCC3)cc3ncccc23)CC1)c1cncnc1C(F)(F)F [Compound 130] : 10 to 150 nM

// Cc1cn([C@H]2CC[C@@H](Oc3nc(N4CCOCC4)cc4ncccc34)CC2)nc1C(F)(F)F [Compound 17e] : IC50 value = 1 to 10 nM

---

test-target: pDNA-PK ser2056 induction in HCT116 spheroids (Homo sapiens)
Construct: endogenous in cells; host or cells: HCT116 multicellular tumour spheroids
assay-method-text: Multicellular tumour spheroid + radiation, pDNA-PK inhibition, HCT116
Type: cell-based
experimental-parameters: Example 9 Study 2; 20 Gy; 20% O2; read-out: Spheroid Cell line: HCT116 Immunohistochemical endpoint pDNA-PK inhibition EC50
pEC50: −log10 of the molar value.
Please respond with reported pEC50 for every item in the list.

For c1cnc2cc(N3CCOCC3)nc(O[C@H]3CC[C@@H](Nc4ncc5sccc5n4)CC3)c2c1 [Compound 84] the compound record lists pEC50 as 6.00 to 6.30

So, O=C(N[C@H]1CC[C@@H](Oc2nc(N3CCOCC3)cc3ncccc23)CC1)c1ccncn1 [Compound 118] ? Its pEC50 was 5.00 to 6.00

Entry Cc1nc(C(F)(F)F)cn1[C@H]1CC[C@@H](Oc2nc(N3CCOCC3)cc3ncccc23)CC1 [Compound 17i] — recorded pEC50 = 5.00 to 6.00

The reported value for O=C(N[C@H]1CC[C@@H](Oc2nc(N3CCOCC3)cc3ncccc23)CC1)c1cnccn1 [Compound 119] in terms of pEC50 is 5.00 to 6.00

Looking up NS(=O)(=O)c1cnc(N[C@H]2CC[C@@H](Oc3nc(N4CCOCC4)cc4ncccc34)CC2)nc1 [Compound 46] , I see its pEC50 listed as 6.00 to 6.30

Noted for Nc1cnc2cc(N3CCOCC3)nc(O[C@H]3CC[C@@H](n4ccnc4)CC3)c2c1 [Compound 160] : its pEC50 reads 5.00 to 6.00

Input CC(C)S(=O)(=O)Nc1cnc2cc(N3CCOCC3)nc(O[C@H]3CC[C@@H](Nc4ncccn4)CC3)c2c1 [Compound 187] . Output pEC50: 4.00 to 5.00

Value of pEC50 reported for the compound O=C(N[C@H]1CC[C@@H](Oc2nc(N3CCOCC3)cc3ncccc23)CC1)C1CCCO1 (some centres unmarked) [Compound 134] is 4.00 to 5.00

Lookup result for CN(c1ncccn1)[C@H]1CC[C@@H](Oc2nc(N3CCOCC3)cc3ncc(NS(C)(=O)=O)cc23)CC1 [Compound 198] ; measured pEC50: 6.00 to 6.30

Memo: Oc1cnc(N[C@H]2CC[C@@H](Oc3nc(N4CCOCC4)cc4ncccc34)CC2)nc1 [Compound 45] , reported pEC50: 6.00 to 6.30

Consider O=C(N[C@H]1CC[C@@H](Oc2nc(N3CCOCC3)cc3ncccc23)CC1)c1ccc[nH]1 [Compound 145] . Its measured pEC50 is 6.30 to 8.00

Summary for this compound, Oc1cnc2cc(N3CCOCC3)nc(O[C@H]3CC[C@@H](Nc4ncccn4)CC3)c2c1 [Compound 19a] : pEC50 is 6.00 to 6.30

# pEC50 (compound: c1cnc2cc(N3CCOCC3)nc(O[C@H]3CC[C@@H](Nc4ccn5nccc5n4)CC3)c2c1 [Compound 89] ) is 6.00 to 6.30

pEC50 for Cn1cnc2cnc(N[C@H]3CC[C@@H](Oc4nc(N5CCOCC5)cc5ncccc45)CC3)nc21 [Compound 88] is 6.30 to 8.00

Entry under test: c1cnc2cc(N3CCOCC3)nc(O[C@H]3CC[C@@H](Nc4ccncc4)CC3)c2c1 [Compound 27] . Its pEC50 was 5.00 to 6.00

Form field pEC50, entry c1cnc2cc(N3CCOCC3)nc(O[C@H]3CC[C@@H](Nc4ccc5ncnn5c4)CC3)c2c1 [Compound 92] : 5.00 to 6.00

For FC(F)(F)c1cn([C@H]2CC[C@@H](Oc3nc(N4CCOCC4)cc4ncccc34)CC2)cn1 [Compound 17k] the compound record lists pEC50 as 5.00 to 6.00

Record O=C(N[C@H]1CC[C@@H](Oc2nc(N3CCOCC3)cc3ncccc23)CC1)c1ccco1 [Compound 132] . Reported pEC50: 6.30 to 8.00

Record Nc1cnc2cc(N3CCOCC3)nc(O[C@H]3CC[C@@H](Nc4ncccn4)CC3)c2c1 [Compound 184] . Reported pEC50: 5.00 to 6.00

Memo: c1cnc2cc(N3CCOCC3)nc(O[C@H]3CC[C@@H](Nc4cnccn4)CC3)c2c1 [Compound 23] , reported pEC50: 6.30 to 8.00
